TEST TARGET: human recombinant P2X7 receptor (Homo sapiens (Human), UniProt Q99572)
Sequence (Q99572 whole entry): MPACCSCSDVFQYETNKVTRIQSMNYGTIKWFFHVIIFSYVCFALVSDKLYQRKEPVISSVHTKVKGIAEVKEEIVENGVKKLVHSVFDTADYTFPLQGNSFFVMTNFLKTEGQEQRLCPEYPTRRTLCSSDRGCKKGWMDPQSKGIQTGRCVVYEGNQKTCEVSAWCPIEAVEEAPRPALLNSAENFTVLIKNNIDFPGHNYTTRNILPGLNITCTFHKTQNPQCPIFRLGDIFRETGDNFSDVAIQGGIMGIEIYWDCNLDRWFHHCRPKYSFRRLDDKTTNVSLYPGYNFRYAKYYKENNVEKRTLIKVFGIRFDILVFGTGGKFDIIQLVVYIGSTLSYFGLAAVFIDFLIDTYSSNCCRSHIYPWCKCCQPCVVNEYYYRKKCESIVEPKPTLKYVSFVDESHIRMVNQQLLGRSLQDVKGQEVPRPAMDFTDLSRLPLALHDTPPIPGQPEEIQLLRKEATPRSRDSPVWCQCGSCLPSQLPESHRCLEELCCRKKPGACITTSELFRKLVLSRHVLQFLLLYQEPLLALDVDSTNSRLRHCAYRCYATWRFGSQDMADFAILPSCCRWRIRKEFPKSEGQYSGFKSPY
METHOD NOTES: YO-PRO assay: P2X7 receptor antagonistic activity
CONDITION NOTES: HEK cells expressing human P2X7
pIC50: −log10 of the molar value.
REPORTED METRIC: pIC50

Cc1cc(Cl)cc(Cl)c1CC(=O)NC1COc2ncccc21 (racemic) [Example 5] : 7.92

[P] CCC(C(=O)NC1COc2ncccc21)c1ccc(Cl)cc1Cl (stereo not drawn) [Example 84]
[Q] O=C(Cc1cccc(C(F)(F)F)c1F)NC1COc2ncccc21 (racemic) [Example 90]
In terms of reported pIC50, does P or Q have the smaller number? Lab note: record the label of whichever item you select.
Q

---

TEST TARGET: human recombinant P2X7 receptor (Homo sapiens (Human))
METHOD NOTES: YO-PRO assay: P2X7 receptor antagonistic activity
CONDITION NOTES: HEK cells expressing human P2X7
pIC50: −log10 of the molar value.
REPORTED METRIC: pIC50

Reference set (3 entries):
O=C(Cc1c(Cl)cc(Cl)cc1CO)NC1COc2ncccc21 (racemic) [Example 103] : 7.80
O=C(Cc1ccc(C(F)(F)F)cc1)NC1CCOc2ncccc21 (racemic) [Example 46] : 5.87
O=C(Cc1c(Cl)ccc(C(F)(F)F)c1Cl)NC1COc2ncccc21 (racemic) [Example 72] : 5.99

[I] O=C(Cc1c(F)ccc(F)c1Cl)NC1COc2ncccc21 (racemic) [Example 78]
[II] O=C(Cc1cccc(Cl)c1C(F)(F)F)NC1COc2ncccc21 (racemic) [Example 97]
[III] N#Cc1cccc(CC(=O)NC2COc3ncccc32)c1Cl (single isomer, unassigned) [Example 99]
[IV] O=C(Cc1cccc(C(F)(F)F)c1Cl)NC1COc2ncccc21 (racemic) [Example 34]
Hello, I need these entries ordered by pIC50, highest reading first. Thanks! Provide the ranking by listing each label in its place in the requested order.
IV, II, III, I
(IV: 8.13, II: 7.82, III: 7.40, I: 6.18)

---

TEST TARGET: human recombinant P2X7 receptor (Homo sapiens (Human), UniProt Q99572)
METHOD NOTES: YO-PRO assay: P2X7 receptor antagonistic activity
CONDITION NOTES: HEK cells expressing human P2X7
REPORTED METRIC: IC50 (nM)

Check out these entries, answers already filled in.
O=C(Cc1cccc(C(F)F)c1Cl)NC1COc2ncccc21 (racemic) : 7.6
Cc1cc(Cl)cc(Cl)c1CC(=O)NC1COc2cnccc21 (single isomer, unassigned) [Example 101] : 598
Cc1ccccc1CC(=O)NC1COc2ncccc21 (racemic) : 1310
N#Cc1cccc(CC(=O)NC2COc3ncccc32)c1Cl (single isomer, unassigned) [Example 98] : 29

[A] O=C(Cc1ccc(Cl)c(Cl)c1)NC1COc2ncccc21 (racemic)
[B] O=C(Cc1c(Cl)ccc(Cl)c1F)NC1COc2ncccc21 (racemic)
[C] O=C(Cc1cccc(C(F)(F)F)c1Cl)NC1COc2cnccc21 (racemic)
Falling order of IC50, please. State the ranking by listing the labels in the requested order.
B, A, C

[1] O=C(Cc1ccc(C(F)(F)F)cc1)NC1COc2ncccc21 (racemic)
[2] Cc1ccc2c(n1)OCC2NC(=O)Cc1c(C)cc(Cl)cc1Cl (racemic)
[3] COc1nccc2c1OCC2NC(=O)Cc1ccc(Cl)cc1Cl (racemic)
[4] O=C(Cc1c(C(F)(F)F)ccc(Cl)c1Cl)NC1COc2ncccc21 (racemic)
# desc sort on IC50 across 4 compounds // list labels; follow requested order
4, 1, 3, 2

meta.source: patent US9221832B2
